Measurement protocol: in vivo
Condition summary: Cyp1a KO, mouse, whole blood, po, 5 mg/kg
Measured parameter: CL/F (mL/min/kg)
Give a bare numeral; the unit mL/min/kg is implied.

Field request: CL/F | item: Cn1c(=O)c2c(ncn2C)n(C)c1=O [caffeine]
4.77

====

Measurement protocol: in vivo
Condition summary: C57BL/6J, mouse, whole blood, po, 5 mg/kg
Measured parameter: half-life (min)
Give a bare numeral; the unit min is implied.

Field request: half-life | item: Cn1c(=O)c2c(ncn2C)n(C)c1=O [caffeine]
56.4

====

Tested system: recombinant human CYP1A1 (Homo sapiens, UniProt P04798)
Sequence (P04798 1-512): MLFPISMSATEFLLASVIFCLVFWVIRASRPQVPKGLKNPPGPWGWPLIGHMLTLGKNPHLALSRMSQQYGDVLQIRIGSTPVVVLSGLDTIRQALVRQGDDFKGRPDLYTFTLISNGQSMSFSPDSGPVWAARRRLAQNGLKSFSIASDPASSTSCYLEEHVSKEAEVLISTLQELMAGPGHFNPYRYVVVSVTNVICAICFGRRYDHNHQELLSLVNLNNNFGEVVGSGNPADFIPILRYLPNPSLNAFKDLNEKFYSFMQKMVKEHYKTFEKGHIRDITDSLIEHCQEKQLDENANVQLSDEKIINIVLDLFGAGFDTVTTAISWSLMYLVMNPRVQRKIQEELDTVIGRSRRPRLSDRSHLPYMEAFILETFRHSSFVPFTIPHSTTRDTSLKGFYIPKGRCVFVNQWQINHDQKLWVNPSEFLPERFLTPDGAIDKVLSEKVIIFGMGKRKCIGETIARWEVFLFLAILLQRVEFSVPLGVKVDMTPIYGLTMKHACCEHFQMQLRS
Measurement protocol: EROD by recombinant human CYP1A1 with and without quinidine
Condition summary: read-out: Ks1 ± S.E.; EROD; rCYP1A1; productive enzyme-substrate complex
Measured parameter: pKd
pKd here is simply -log10 of the concentration when that concentration is written in mol/L.

Field request: pKd | item: "CCOc1ccc2nc3ccc(=O)cc-3oc2c1"
7.05

====

Measurement protocol: in vivo
Condition summary: hCYP1A1/1A2, mouse, whole blood, po, 5 mg/kg
Measured parameter: AUC(0-inf) (ng·h/mL)
Give a bare numeral; the unit ng·h/mL is implied.

Field request: AUC(0-inf) | item: "Cn1c(=O)c2c(ncn2C)n(C)c1=O"
8400

====

Measurement protocol: in vivo
Condition summary: hCYP1A1/1A2, mouse, whole blood, po, 5 mg/kg
Measured parameter: CL/F (mL/min/kg)
Give a bare numeral; the unit mL/min/kg is implied.

Field request: CL/F | item: "Cn1c(=O)c2c(ncn2C)n(C)c1=O"
10.2

====

System: MROD activity, non-Cyp1a component of the liver microsomes
Measurement protocol: in vitro
Condition summary: Cyp1a KO, mouse, pH 7.4
Measured parameter: Ki

Field request: Ki | item: "C=C[C@H]1C[N@@]2CC[C@H]1C[C@@H]2[C@@H](O)c1ccnc2ccc(OC)cc12"
> 200 µM

====

Test system: liver microsomes from TCDD-treated Cyp1a KO mice (non-Cyp1a component)
Measurement protocol: EROD in liver microsomes from TCDD-treated Cyp1a KO mice with and without quinidine
Condition summary: read-out: Ks2 ± S.E.
Measured parameter: Kd (µM)
Give a bare numeral; the unit µM is implied.

Field request: Kd | item: "CCOc1ccc2nc3ccc(=O)cc-3oc2c1"
13

====

Measurement protocol: in vivo
Condition summary: C57BL/6J, mouse, whole blood, po, 5 mg/kg
Measured parameter: Cmax (ng/mL)
Give a bare numeral; the unit ng/mL is implied.

Field request: Cmax | item: "Cn1c(=O)c2c(ncn2C)n(C)c1=O"
2380

====

Measurement protocol: in vivo
Condition summary: HRN (hepatic reductase null), mouse, whole blood, po, 5 mg/kg
Measured parameter: Cmax (ng/mL)
Give a bare numeral; the unit ng/mL is implied.

Field request: Cmax | item: "Cn1c(=O)c2c(ncn2C)n(C)c1=O"
3740

====

Measurement protocol: in vivo
Condition summary: C57BL/6J, mouse, whole blood, po, 5 mg/kg
Measured parameter: CL/F (mL/min/kg)
Give a bare numeral; the unit mL/min/kg is implied.

Field request: CL/F | item: Cn1c(=O)c2c(ncn2C)n(C)c1=O [caffeine]
15.1

====

System: liver microsomes from TCDD-treated Cyp1a KO mice (non-Cyp1a component)
Measurement protocol: MROD in liver microsomes from TCDD-treated Cyp1a KO mice with and without quinidine
Condition summary: read-out: Ks1 ± S.E.
Measured parameter: pKd
pKd here is simply -log10 of the concentration when that concentration is written in mol/L.

Field request: pKd | item: COc1ccc2nc3ccc(=O)cc-3oc2c1 [MR, 7-methoxyresorufin]
6.02

====

Tested on: liver microsomes from TCDD-treated Cyp1a KO mice (non-Cyp1a component)
Measurement protocol: EROD in liver microsomes from TCDD-treated Cyp1a KO mice with and without quinidine
Condition summary: read-out: Ks1 ± S.E.
Measured parameter: pKd
pKd here is simply -log10 of the concentration when that concentration is written in mol/L.

Field: pKd (liver microsomes from TCDD-treated Cyp1a KO mice (non-Cyp1a component)). Entry: "CCOc1ccc2nc3ccc(=O)cc-3oc2c1"
6.08

====

Measurement protocol: in vivo
Condition summary: hCYP1A1/1A2, mouse, whole blood, po, 5 mg/kg
Measured parameter: half-life (h)
Give a bare numeral; the unit h is implied.

Field request: half-life | item: Cn1c(=O)c2c(ncn2C)n(C)c1=O [caffeine]
1.3

====

Tested system: recombinant human CYP1A1 (Homo sapiens, UniProt P04798)
Sequence (P04798 1-512): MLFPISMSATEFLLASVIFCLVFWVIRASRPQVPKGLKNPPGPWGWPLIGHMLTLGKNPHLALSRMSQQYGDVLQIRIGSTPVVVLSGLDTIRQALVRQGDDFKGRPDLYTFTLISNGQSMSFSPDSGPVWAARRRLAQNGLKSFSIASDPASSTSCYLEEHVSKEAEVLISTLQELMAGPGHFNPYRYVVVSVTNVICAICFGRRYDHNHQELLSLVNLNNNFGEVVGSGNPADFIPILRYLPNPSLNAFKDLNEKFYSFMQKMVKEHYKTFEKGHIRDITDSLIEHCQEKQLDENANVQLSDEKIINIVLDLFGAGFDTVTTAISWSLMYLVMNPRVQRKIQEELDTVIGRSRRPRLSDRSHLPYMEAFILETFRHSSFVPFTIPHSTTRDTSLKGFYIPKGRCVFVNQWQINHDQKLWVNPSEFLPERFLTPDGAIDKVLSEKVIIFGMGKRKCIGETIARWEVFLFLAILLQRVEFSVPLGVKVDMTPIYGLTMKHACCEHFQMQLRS
Measurement protocol: EROD by recombinant human CYP1A1 with and without quinidine
Condition summary: read-out: Ks2 ± S.E.; EROD; rCYP1A1; inhibitory enzyme-substrate complex
Measured parameter: Kd

Field: Kd (recombinant human CYP1A1 (Homo sapiens, UniProt P04798)). Entry: CCOc1ccc2nc3ccc(=O)cc-3oc2c1 [ER, 7-ethoxyresorufin]
11 µM

====

Tested system: recombinant human CYP1A1 (Homo sapiens, UniProt P04798)
Measurement protocol: biochemical
Measured parameter: pIC50
pIC50 here is simply -log10 of the concentration when that concentration is written in mol/L.

Field request: pIC50 | item: "C=C[C@H]1C[N@@]2CC[C@H]1C[C@@H]2[C@@H](O)c1ccnc2ccc(OC)cc12"
5.24

====

Test system: EROD activity, non-Cyp1a component of the liver microsomes
Measurement protocol: in vitro
Condition summary: Cyp1a KO, mouse, pH 7.4
pKi: −log10 of the molar value.
Measured parameter: pKi

Field request: pKi | item: "C=C[C@H]1C[N@@]2CC[C@H]1C[C@@H]2[C@@H](O)c1ccnc2ccc(OC)cc12"
< 3.70

====

Tested system: recombinant human CYP1A2 (Homo sapiens, UniProt P05177)
Sequence (P05177 whole entry): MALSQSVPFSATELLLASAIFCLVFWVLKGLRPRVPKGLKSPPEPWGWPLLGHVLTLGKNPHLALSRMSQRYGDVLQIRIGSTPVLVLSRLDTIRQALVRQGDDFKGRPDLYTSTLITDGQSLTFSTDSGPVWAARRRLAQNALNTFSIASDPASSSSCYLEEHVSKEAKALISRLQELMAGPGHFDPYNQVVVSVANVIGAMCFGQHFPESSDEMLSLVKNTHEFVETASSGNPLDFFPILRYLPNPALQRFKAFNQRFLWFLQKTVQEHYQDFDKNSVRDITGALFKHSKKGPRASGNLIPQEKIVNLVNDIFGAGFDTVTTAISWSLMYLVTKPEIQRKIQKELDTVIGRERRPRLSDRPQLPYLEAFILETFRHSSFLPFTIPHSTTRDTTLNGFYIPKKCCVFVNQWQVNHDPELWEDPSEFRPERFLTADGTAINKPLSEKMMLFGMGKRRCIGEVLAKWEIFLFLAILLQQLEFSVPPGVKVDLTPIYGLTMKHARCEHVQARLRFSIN
Measurement protocol: MROD by recombinant human CYP1A2, inhibition by quinidine
Condition summary: read-out: Ks1 ± S.E.; MROD; rCYP1A2
Measured parameter: pKd
pKd here is simply -log10 of the concentration when that concentration is written in mol/L.

Field request: pKd | item: "COc1ccc2nc3ccc(=O)cc-3oc2c1"
6.24
